Numbers sourced from patent US20230192860A1.

target: T1, hVISTA-ECD 6-His tag (human, UniProt Q9H7M9 33-193); test: SPR 37 C, Ab on Protein A, pH 7.4
T1 construct: also called monovalent hVISTA-ECD; human VISTA
T1 sequence (Q9H7M9 other isoform, or with tags, fused parts or gaps limits assumed): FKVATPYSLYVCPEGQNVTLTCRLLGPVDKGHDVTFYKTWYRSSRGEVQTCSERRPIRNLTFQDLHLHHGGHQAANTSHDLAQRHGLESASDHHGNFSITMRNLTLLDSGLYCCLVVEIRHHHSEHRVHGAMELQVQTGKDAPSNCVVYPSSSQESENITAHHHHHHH
Quick reference for kon among some binders
Return type: number; implicit unit M⁻¹ s⁻¹.

Worked examples follow.
binder="P1-077847 (P1-068744 H50I E59Y) (antibody, V domains shown) VH: QVQLVESGGGVVQPGRSLRLSCAASGFTFSEYAMHWVRQAPGKGLEWVAIIWYDGSNKYYADSVKGRFTISRDNSKNTLYLQMNSLRAEDTAVYYCARDSGFYESYYFDEWGQGTLVTVSS VL: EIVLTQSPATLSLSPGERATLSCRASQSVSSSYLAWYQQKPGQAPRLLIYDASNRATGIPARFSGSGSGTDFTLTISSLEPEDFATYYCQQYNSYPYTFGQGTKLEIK" output_unit="M⁻¹ s⁻¹" observed_value=120000
binder="P1-077857 (P1-068744 E31S E100S) (antibody, V domains shown) VH: QVQLVESGGGVVQPGRSLRLSCAASGFTFSSYAMHWVRQAPGKGLEWVAHIWYDGSNKYEADSVKGRFTISRDNSKNTLYLQMNSLRAEDTAVYYCARDSGFYSSYYFDEWGQGTLVTVSS VL: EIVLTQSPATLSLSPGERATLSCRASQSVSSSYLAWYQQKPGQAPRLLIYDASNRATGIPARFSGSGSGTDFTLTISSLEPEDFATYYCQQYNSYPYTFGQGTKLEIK" output_unit="M⁻¹ s⁻¹" observed_value=300000
binder="P1-077853 (P1-068744 E31S E102Y) (antibody, V domains shown) VH: QVQLVESGGGVVQPGRSLRLSCAASGFTFSSYAMHWVRQAPGKGLEWVAHIWYDGSNKYEADSVKGRFTISRDNSKNTLYLQMNSLRAEDTAVYYCARDSGFYESYYFDYWGQGTLVTVSS VL: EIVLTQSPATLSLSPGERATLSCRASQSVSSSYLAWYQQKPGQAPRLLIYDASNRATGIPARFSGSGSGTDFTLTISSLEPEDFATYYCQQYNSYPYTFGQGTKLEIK" output_unit="M⁻¹ s⁻¹" observed_value=21000
binder="P1-077839 (P1-068744 E59Y) (antibody, V domains shown) VH: QVQLVESGGGVVQPGRSLRLSCAASGFTFSEYAMHWVRQAPGKGLEWVAHIWYDGSNKYYADSVKGRFTISRDNSKNTLYLQMNSLRAEDTAVYYCARDSGFYESYYFDEWGQGTLVTVSS VL: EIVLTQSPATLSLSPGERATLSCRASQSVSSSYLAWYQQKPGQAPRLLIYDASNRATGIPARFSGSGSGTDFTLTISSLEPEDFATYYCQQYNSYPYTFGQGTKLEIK" output_unit="M⁻¹ s⁻¹" observed_value=71000
binder="P1-077845 (P1-068744 E31S H50I) (antibody, V domains shown) VH: QVQLVESGGGVVQPGRSLRLSCAASGFTFSSYAMHWVRQAPGKGLEWVAIIWYDGSNKYEADSVKGRFTISRDNSKNTLYLQMNSLRAEDTAVYYCARDSGFYESYYFDEWGQGTLVTVSS VL: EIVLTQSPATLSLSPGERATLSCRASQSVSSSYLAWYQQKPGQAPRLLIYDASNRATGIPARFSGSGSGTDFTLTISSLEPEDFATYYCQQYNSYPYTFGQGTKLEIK" output_unit="M⁻¹ s⁻¹" observed_value=280000
binder="P1-077851 (P1-068744 E100S E102Y) (antibody, V domains shown) VH: QVQLVESGGGVVQPGRSLRLSCAASGFTFSEYAMHWVRQAPGKGLEWVAHIWYDGSNKYEADSVKGRFTISRDNSKNTLYLQMNSLRAEDTAVYYCARDSGFYSSYYFDYWGQGTLVTVSS VL: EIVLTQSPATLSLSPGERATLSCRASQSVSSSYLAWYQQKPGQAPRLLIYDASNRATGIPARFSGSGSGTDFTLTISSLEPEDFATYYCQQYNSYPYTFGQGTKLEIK" output_unit="M⁻¹ s⁻¹" observed_value=150000
binder="P1-077835 (P1-068744 E31S) (antibody, V domains shown) VH: QVQLVESGGGVVQPGRSLRLSCAASGFTFSSYAMHWVRQAPGKGLEWVAHIWYDGSNKYEADSVKGRFTISRDNSKNTLYLQMNSLRAEDTAVYYCARDSGFYESYYFDEWGQGTLVTVSS VL: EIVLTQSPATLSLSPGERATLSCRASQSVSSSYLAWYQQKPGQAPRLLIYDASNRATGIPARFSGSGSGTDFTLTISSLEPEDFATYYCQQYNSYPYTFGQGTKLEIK" output_unit="M⁻¹ s⁻¹" observed_value=39000
binder="P1-077837 (P1-068744 H50I) (antibody, V domains shown) VH: QVQLVESGGGVVQPGRSLRLSCAASGFTFSEYAMHWVRQAPGKGLEWVAIIWYDGSNKYEADSVKGRFTISRDNSKNTLYLQMNSLRAEDTAVYYCARDSGFYESYYFDEWGQGTLVTVSS VL: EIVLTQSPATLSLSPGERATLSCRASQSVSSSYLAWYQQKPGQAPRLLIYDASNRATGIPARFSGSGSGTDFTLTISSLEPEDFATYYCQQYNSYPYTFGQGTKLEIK" output_unit="M⁻¹ s⁻¹" observed_value=130000
binder="P1-077863 (P1-068744 E59Y E102Y) (antibody, V domains shown) VH: QVQLVESGGGVVQPGRSLRLSCAASGFTFSEYAMHWVRQAPGKGLEWVAHIWYDGSNKYYADSVKGRFTISRDNSKNTLYLQMNSLRAEDTAVYYCARDSGFYESYYFDYWGQGTLVTVSS VL: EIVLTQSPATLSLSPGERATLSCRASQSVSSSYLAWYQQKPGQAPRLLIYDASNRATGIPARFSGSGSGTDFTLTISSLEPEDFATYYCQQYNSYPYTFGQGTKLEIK" output_unit="M⁻¹ s⁻¹" observed_value=63000

Let's switch to this binder now.
Look up kon for this binder: P1-077859 (P1-068744 H50I E100S) (antibody, V domains shown) VH: QVQLVESGGGVVQPGRSLRLSCAASGFTFSEYAMHWVRQAPGKGLEWVAIIWYDGSNKYEADSVKGRFTISRDNSKNTLYLQMNSLRAEDTAVYYCARDSGFYSSYYFDEWGQGTLVTVSS VL: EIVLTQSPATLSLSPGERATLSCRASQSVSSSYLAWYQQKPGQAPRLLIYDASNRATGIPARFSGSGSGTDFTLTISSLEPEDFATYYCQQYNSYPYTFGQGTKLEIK
460000
